system under test: α5β1 integrin (Homo sapiens, UniProt P05556+P08648)
Construct: erythroleukemic cell line K562, which expresses α5β1 but not α4β1 integrin; endogenous in cells; host or cells: K562 cells
Sequence (P08648 42-894 limits assumed): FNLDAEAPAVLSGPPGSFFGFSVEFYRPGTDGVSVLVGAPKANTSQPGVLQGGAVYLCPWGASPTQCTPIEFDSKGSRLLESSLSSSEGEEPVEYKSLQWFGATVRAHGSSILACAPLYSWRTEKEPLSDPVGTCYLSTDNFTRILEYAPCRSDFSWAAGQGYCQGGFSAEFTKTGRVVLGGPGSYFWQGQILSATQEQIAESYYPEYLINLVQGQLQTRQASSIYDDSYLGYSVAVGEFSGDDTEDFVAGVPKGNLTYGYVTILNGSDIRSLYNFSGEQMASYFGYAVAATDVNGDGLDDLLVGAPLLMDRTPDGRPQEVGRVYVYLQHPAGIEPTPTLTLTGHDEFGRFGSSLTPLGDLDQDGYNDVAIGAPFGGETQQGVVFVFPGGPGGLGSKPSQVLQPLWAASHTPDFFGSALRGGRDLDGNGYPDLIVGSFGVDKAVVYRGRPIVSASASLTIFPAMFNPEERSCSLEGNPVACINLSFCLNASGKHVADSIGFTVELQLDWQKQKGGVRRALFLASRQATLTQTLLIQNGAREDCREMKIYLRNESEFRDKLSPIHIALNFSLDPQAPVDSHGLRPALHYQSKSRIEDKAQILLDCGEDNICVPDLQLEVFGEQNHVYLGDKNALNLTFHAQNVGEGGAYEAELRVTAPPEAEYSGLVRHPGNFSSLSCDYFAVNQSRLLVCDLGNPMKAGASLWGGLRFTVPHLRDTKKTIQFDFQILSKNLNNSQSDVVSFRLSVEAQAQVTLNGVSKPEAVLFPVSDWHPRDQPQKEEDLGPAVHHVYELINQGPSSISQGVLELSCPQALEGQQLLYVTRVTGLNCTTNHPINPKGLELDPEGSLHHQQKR
Sequence (P08648 895-1049 limits assumed): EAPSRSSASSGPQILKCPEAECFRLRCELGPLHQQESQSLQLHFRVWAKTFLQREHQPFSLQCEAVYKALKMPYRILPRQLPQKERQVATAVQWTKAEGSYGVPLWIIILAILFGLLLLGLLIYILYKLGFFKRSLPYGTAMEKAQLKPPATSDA
Sequence (P05556 21-798): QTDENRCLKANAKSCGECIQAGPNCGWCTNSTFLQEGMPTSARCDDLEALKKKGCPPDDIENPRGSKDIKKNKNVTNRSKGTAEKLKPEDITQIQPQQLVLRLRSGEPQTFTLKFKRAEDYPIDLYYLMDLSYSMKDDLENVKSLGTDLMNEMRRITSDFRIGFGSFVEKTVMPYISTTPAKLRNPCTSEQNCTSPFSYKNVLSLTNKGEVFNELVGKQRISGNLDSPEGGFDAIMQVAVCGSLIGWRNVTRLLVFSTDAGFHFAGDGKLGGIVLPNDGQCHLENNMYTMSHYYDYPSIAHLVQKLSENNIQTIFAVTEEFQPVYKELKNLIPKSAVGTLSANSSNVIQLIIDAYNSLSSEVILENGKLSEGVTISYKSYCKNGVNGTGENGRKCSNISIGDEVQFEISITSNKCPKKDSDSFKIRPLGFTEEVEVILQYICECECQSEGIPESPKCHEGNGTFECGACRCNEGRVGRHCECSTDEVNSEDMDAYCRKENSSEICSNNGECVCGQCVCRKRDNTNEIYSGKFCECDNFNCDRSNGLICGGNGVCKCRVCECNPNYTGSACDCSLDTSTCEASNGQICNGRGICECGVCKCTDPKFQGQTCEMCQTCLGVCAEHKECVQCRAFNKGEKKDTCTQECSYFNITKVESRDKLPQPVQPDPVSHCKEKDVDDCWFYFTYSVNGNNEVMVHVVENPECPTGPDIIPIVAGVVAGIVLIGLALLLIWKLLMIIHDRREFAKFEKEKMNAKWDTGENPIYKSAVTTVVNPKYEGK
test summary: Inhibition of α5β1 integrin dependent Mn+2 stimulated adhesion of K562 cells to fibronectin (FN)
Type: cell-based
particulars: K562 cells stimulated with 1 mM MnCl2, adhesion to FN; read-out: half-maximal inhibitory concentration
Procedure: The cell adhesion assay was carried out as described above. […] Each data point represents the mean of triplicate determinations and the error bars represent the standard deviation of the mean. The solid black line represents adhesion to the negative control substrate, BSA.
Where no end group is shown, it is not given here.
parameter measured: IC50 (µM)
Express your answer in µM, writing the number without its unit.

[in] Write down the reported IC50 of WQPPRARIY-OH [SEQ ID NO:1] , test system: α5β1 integrin (Homo sapiens, UniProt P05556+P08648).
[out] 200

Data credit: patent US6849712B1
